# assay.system: human 5-hydroxytryptamine2C (h5HT2C) receptor (Homo sapiens, UniProt P28335)
# Construct: expressed in transfected cells; host or cells: CHO (Chinese Hamster Ovary) cells; membrane preparation
# Sequence (P28335 33-458): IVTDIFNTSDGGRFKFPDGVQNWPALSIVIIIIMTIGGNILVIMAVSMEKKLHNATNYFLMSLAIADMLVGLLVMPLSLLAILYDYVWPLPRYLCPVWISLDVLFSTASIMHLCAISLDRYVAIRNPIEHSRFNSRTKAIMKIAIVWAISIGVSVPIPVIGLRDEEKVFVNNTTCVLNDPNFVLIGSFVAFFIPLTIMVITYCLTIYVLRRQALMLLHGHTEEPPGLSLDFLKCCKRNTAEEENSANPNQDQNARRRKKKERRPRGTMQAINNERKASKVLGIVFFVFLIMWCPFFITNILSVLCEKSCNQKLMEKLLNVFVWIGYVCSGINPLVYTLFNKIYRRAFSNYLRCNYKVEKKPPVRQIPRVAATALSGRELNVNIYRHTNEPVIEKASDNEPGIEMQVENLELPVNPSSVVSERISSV
# protocol: 5HT2C Receptor Binding Test Procedure ([125I]DOI displacement, CHO cell membranes)
# details: [125I]DOI binding, h5HT2C in CHO membranes; 95% confidence interval in brackets; read-out: Ki value and 95% confidence interval (reference compounds)
property.name: Ki (nM)
Give bare numbers, in nM.

Query string: Record request: Ki value, item CSc1ccc2c(c1)C(N1CCN(C)CC1)Cc1ccccc1S2 (stereo not shown) [Methiothepin]
Result string: 4.6
